system: FXR:RXRa (NR concentration 270 nM, RXRa partner concentration 90 nM); test: PBM binding z-score (relative to random genomic background probes); higher = stronger binding; sequences stand for … in GC…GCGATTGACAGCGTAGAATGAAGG
Decide by PBM binding z-score: equal to or exceeding 0.7 means yes (1), less means no (0).

>>> df
                       sequence_chain  label_class
0  ATCTCTAGGTAACAAGCTCAGTGAAAGAGAGGAC       no (0)

In: hey, is PBM binding z-score for this one >= 0.7? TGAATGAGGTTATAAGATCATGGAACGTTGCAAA
Out: yes (1)

In: Exam item: decide whether the reported PBM binding z-score for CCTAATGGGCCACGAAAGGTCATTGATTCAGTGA is at least 0.7.
Out: yes (1)

In: # bool: PBM binding z-score of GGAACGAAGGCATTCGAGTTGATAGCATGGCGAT >= 0.7
Out: no (0)

In: Hello, I need to know if ATACCAAGGTGATCGTGAGGTCGTTGAGACTAAC has measured PBM binding z-score not below 0.7. Thanks!
Out: yes (1)
